These entries and their values trace back to PubChem BioAssay AID1159580.

# test-summary: chemical genetic growth profiling, strain panel (AID 1159580);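 note: tested at 20 µM; growth read once vehicle control cultures reached saturation at 30 °C; 1 = growth at the plate median or of vehicle wells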
# condition-info: S. cerevisiae deletion strains, growth OD, locus YPL055C, strain LGE1, stronger effect = lower value
Hit rate of the full screen: of about 5,500 compounds, about 2,000 (36%) were called active. Another 18% or so got no clear call; they are omitted. The list shows a part of the results.
Please provide measured normalized growth for the entries that follow.
Give bare numbers.

Below, 2 compounds whose answers are already recorded.
compound	value-measured
CC1(C)C(O)CC(=O)C2(C)C1CC(O)C1(C)C2CCC2(C)C(c3ccoc3)OC(=O)C3OC321 (stereo not drawn)	0.989
C/C=C(\C)C(=O)O[C@@H]1c2c(ccc3ccc(=O)oc23)OC(C)(C)[C@@H]1OC(C)=O	1

Lab note: next compound to report on.
What value of normalized growth has been reported for the following compound? `COc1cc(C)c2c(=O)c3c(O)cc(OC)cc3oc2c1`
1.01

---

# test-summary: chemical genetic growth profiling, strain panel (AID 1159580)
# condition-info: S. cerevisiae deletion strains, growth OD, locus YKL085W, strain MDH1 (second series), stronger effect = lower value
The campaign covered roughly 5,500 compounds. About 2,000 (36%) were called active. Not shown: some 18% with an inconclusive outcome. The list shows a part of the results.
Please provide measured normalized growth for the entries that follow.
Answers are plain numbers.

Parameter requested: normalized growth. Apply to each item below.
1. CC(=O)[C@@]1(O)CCC2C3C=C(Cl)C4=CC(=O)[C@@H]5CC5[C@]4(C)C3CC[C@@]21C (stereo partly drawn)
2. Oc1ccc2c3c1OC1[C@@H](O)CC[C@@]4(O)[C@@H](C2)N(CC2CCC2)CC[C@]314 (stereo partly drawn)
3. CSc1nc(NC(C)C)nc(NC(C)C)n1

0.999
1
1.01

---

Please provide measured normalized growth for the entries that follow.
# test-summary: chemical genetic growth profiling, strain panel (AID 1159580)
# condition-info: S. cerevisiae deletion strains, growth OD, locus YOR070C, strain gyp1, stronger effect = lower value
About 2,000 (36%) of roughly 5,500 compounds were called active. Not shown: some 18% with an inconclusive outcome. The list shows a part of the results.
Answers are plain numbers.

compound	value-measured
CC[C@@]1(O)C(=O)OCc2c1cc1n(c2=O)Cc2cc3cc(O)ccc3nc2-1	1.01
C[C@]12CCC3C(CC[C@]4(O)C[C@@H](O)CC[C@]34C=O)[C@@]1(O)CCC2C1=CC(=O)OC1 (stereo not given in full)	0.998
Cc1ncc(CO)c(CO)c1O	1.03

Parameter requested: normalized growth. Apply to each item below.
1. NC(=O)c1ccc([N+](=O)[O-])cc1Cl
2. C[C@H]1O[C@@H](O[C@H]2[C@@H](O)C[C@H](O[C@H]3[C@@H](O)C[C@H](O[C@H]4CC[C@]5(C)C6C[C@@H](O)[C@]7(C)[C@@H](C8=CC(=O)OC8)CC[C@]7(O)C6CC[C@@H]5C4)O[C@@H]3C)O[C@@H]2C)C[C@H](O)[C@@H]1O (stereo not given in full)

0.972
0.999

---

# test-summary: chemical genetic growth profiling, strain panel (AID 1159580)
# condition-info: S. cerevisiae deletion strains, growth OD, locus YER016W, strain bim1, stronger effect = lower value
Out of some 5,500 compounds screened, about 2,000 (36%) were called active. Roughly 18% stayed inconclusive and do not appear here. This is one part of the list.
endpoint-name: normalized growth

Below, 2 molecules whose answers are already recorded.
molecule	value-measured
CCC(=O)NCC[C@@H]1CCc2ccc3c(c21)CCO3	1.02 (inactive)
CCCCC(=O)O[C@]1(C(=O)CO)[C@@H](C)CC2C3CCC4=CC(=O)C=C[C@]4(C)[C@@]3(F)C(O)C[C@@]21C (some centres not stated)	1.02 (inactive)

Parameter requested: normalized growth. Apply to each item below.
1. CCC(=O)OCC(=O)C1(OC(=O)CC)C(C)CC2C3CCC4=CC(=O)C=CC4(C)C3(Cl)C(O)CC21C (configuration not stated)
2. NS(=O)(=O)c1cc2c(cc1C(F)(F)F)NC(Cc1ccccc1)NS2(=O)=O (configuration not stated)
3. CCC(=O)OCC(=O)[C@@]1(OC(=O)CC)[C@@H](C)CC2C3CCC4=CC(=O)C=C[C@]4(C)C3(F)[C@@H](O)C[C@@]21C (some centres not stated)

0.996 (inactive)
0.992 (inactive)
1.01 (inactive)

Parameter requested: normalized growth. Apply to each item below.
1. CCC(=O)O[C@]1(C(=O)CCl)[C@@H](C)CC2C3CCC4=CC(=O)C=C[C@]4(C)[C@@]3(F)[C@@H](O)C[C@@]21C (some centres not stated)
2. N#Cc1c(Cl)cccc1Cl

1.01 (inactive)
0.979 (inactive)

Parameter requested: normalized growth. Apply to each item below.
1. CC(C)c1cccc(C(C)C)c1O
2. CCn1nc(C(=O)O)c(=O)c2cc3c(cc21)OCO3
3. C[C@H]1O[C@H](O[C@H]2[C@H](O)[C@@H](O)[C@@H](O[C@H]3[C@H](O)[C@@H](O)C(O)O[C@@H]3CO)O[C@@H]2CO)[C@H](O)[C@@H](O)[C@@H]1N[C@H]1C=C(CO)[C@@H](O)[C@H](O)[C@H]1O (some centres not stated)
4. NC(=O)c1ccccc1O
5. COC(=O)CC1C(C)(C)C(OC(C)=O)[C@@H]2[C@@H](OC(C)=O)[C@]34O[C@@]2(O)[C@]1(C)C3CC[C@]1(C)C4=CC(=O)O[C@H]1c1ccoc1 (some centres not stated)

["0.979 (inactive)", "0.996 (inactive)", "1 (inactive)", "1.01 (inactive)", "1.01 (inactive)"]

---

Please provide measured normalized growth for the entries that follow.
# test-summary: chemical genetic growth profiling, strain panel (AID 1159580);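 note: tested at 20 µM; growth read once vehicle control cultures reached saturation at 30 °C; 1 = growth at the plate median or of vehicle wells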
# condition-info: S. cerevisiae deletion strains, growth OD, locus YMR205C, strain PFK2, stronger effect = lower value
The whole screen tested about 5,500 compounds, of which about 2,000 (36%) were called active. Inconclusive results (about 18%) are left out. The list shows a part of the results.
Numbers only.

Below, 5 compounds whose answers are already recorded.
compound	endpoint-name	value-measured
CCn1nc(C(=O)O)c(=O)c2cc3c(cc21)OCO3	normalized growth	1.02
C[C@@H]1CC[C@@]23CCC4(C)[C@@](C=CC5[C@@]6(C)CC[C@H](O)C(C)(C)C6CC[C@]54C)(OC2=O)C3[C@H]1C (stereo partly specified)	normalized growth	1.02
Nc1nc(/C(=C/CC(=O)O)C(=O)N[C@@H]2C(=O)N3C(C(=O)O)=CCS[C@H]23)cs1	normalized growth	1.01
C[C@H]1[C@H](C)CC[C@]2(C(=O)O)CC[C@]3(C)C(=CCC4[C@@]5(C)C[C@@H](O)[C@H](O)[C@@](C)(CO)C5CC[C@]43C)[C@H]12 (stereo partly specified)	normalized growth	1.01
C[C@@H]1CC[C@@]23CCC4(C)[C@@](C=CC5[C@@]6(C)CCC(=O)C(C)(C)C6CC[C@]54C)(OC2=O)C3[C@H]1C (stereo partly specified)	normalized growth	0.983

Lab note: next compound to report on.
What value of normalized growth has been reported for the following compound? `COC1=CC(=O)C=C(OC)C1=O`
0.983

---

# test-summary: chemical genetic growth profiling, strain panel (AID 1159580);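 note: tested at 20 µM; growth read once vehicle control cultures reached saturation at 30 °C; 1 = growth at the plate median or of vehicle wells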
# condition-info: S. cerevisiae deletion strains, growth OD, locus YOR080W, strain dia2, stronger effect = lower value
The campaign covered roughly 5,500 compounds. About 2,000 (36%) were called active. Inconclusive results (about 18%) are left out. The list shows a part of the results.
Rule for this label: Satisfied means normalized growth is less than 1; Not satisfied means normalized growth is at least 1.

Look over these answered cases.
compound	category
Cc1c(C(N)=O)cc([N+](=O)[O-])cc1[N+](=O)[O-]	Not satisfied
O=C(O)CCc1nc(-c2ccccc2)c(-c2ccccc2)o1	Satisfied
O=c1c(O)cc([C@H]2Oc3cc(O)cc(O)c3C[C@H]2O)cc2c([C@H]3Oc4cc(O)cc(O)c4C[C@H]3O)cc(O)c(O)c12	Not satisfied
CCC(=O)OCC(=O)C1(OC(=O)CC)C(C)CC2C3CCC4=CC(=O)C=CC4(C)C3(Cl)C(O)CC21C (centres undefined)	Satisfied
O=C(/C=C(\O)c1ccccc1)c1ccccc1O	Satisfied
CCCCC(=O)O[C@]1(C(=O)CO)[C@@H](C)CC2C3CCC4=CC(=O)C=C[C@]4(C)[C@@]3(F)C(O)C[C@@]21C (some centres undefined)	Satisfied

Next up:
normalized growth strictly < 1 for this compound? `CO[C@@H]1[C@@H](OC(N)=O)[C@@H](O)[C@H](Oc2ccc3c(O)c(NC(=O)c4ccc(O)c(CC=C(C)C)c4)c(=O)oc3c2C)OC1(C)C`
Not satisfied

---

Please provide measured normalized growth for the entries that follow.
# test-summary: chemical genetic growth profiling, strain panel (AID 1159580);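 note: tested at 20 µM; growth read once vehicle control cultures reached saturation at 30 °C; 1 = growth at the plate median or of vehicle wells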
# condition-info: S. cerevisiae deletion strains, growth OD, locus YBR023C, strain chs3, stronger effect = lower value
In all, about 5,500 compounds went through this assay and about 2,000 (36%) were called active. About 18% were inconclusive and are not listed. This is one part of the list.
One number for each entry.

Below, 2 molecules whose answers are already recorded.
molecule	normalized growth
COC1=CC(=O)C=C(OC)C1=O	0.998
C[C@@H]1CC[C@@]23CCC4(C)[C@@](C=CC5[C@@]6(C)CCC(=O)C(C)(C)C6CC[C@]54C)(OC2=O)C3[C@H]1C (stereo partly specified)	1

Parameter requested: normalized growth. Apply to each item below.
1. CCC(=O)O[C@]1(C(=O)CCl)[C@@H](C)CC2C3CCC4=CC(=O)C=C[C@]4(C)[C@@]3(F)[C@@H](O)C[C@@]21C (stereo partly specified)
2. COC(=O)N/N=C\c1c[n+]([O-])c2ccccc2[n+]1[O-]
3. COc1nc(NC(C)C)nc(NC(C)C)n1
4. CC(=O)N1CCN(c2ccc(OCC3CO[C@](Cn4ccnc4)(c4ccc(Cl)cc4Cl)O3)cc2)CC1 (stereo partly specified)

1. 1.02
2. 0.987
3. 1.03
4. 0.0942
